Entry source: PubChem BioAssay AID1963437

Recorded viability, T/C values for a group of compounds are listed next.
- Test system: OVCAR-8 complex spheroid, growth inhibition
- EXPERIMENT_SUMMARY: Anticancer human tumor OVCAR-8 cell line growth inhibition [Asc];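 note: spheroids exposed to agents for 7 days before readout; percent viability relative to DMSO vehicle wells taken as 100%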
- CONDITION_INFO: second compound 0.0316 µM; first compound 0.00949 µM; hits give low values
- Description: Multicellular complex tumor spheroid response to apoptosis pathway targeting inhibitors Alrizomadlin, Pelcitoclax, and Dasminapant in combination with a variety of drugs and investigational agents in selected tumor cell lines […] Compounds. […] If the clinical Cmax for an agent had not been determined, the highest concentration tested was 10 microM. […]
Please respond with the number in % and leave the unit unwritten.

CCN1C(C(=O)NC23CCC(C(=O)O)(CC2)CC3)C(c2cccc(Cl)c2F)C2(C(=O)Nc3cc(Cl)ccc32)C12CCCCC2 (configuration not stated) + CNC(C)C(=O)NC1CN(S(=O)(=O)c2cccc(S(=O)(=O)N3CCC4CCC(C(=O)NC(c5ccccc5)c5ccccc5)N4C(=O)C(NC(=O)C(C)NC)C3)c2)CCC2CCC(C(=O)NC(c3ccccc3)c3ccccc3)N2C1=O :: 85.4

Next:
Exercise: Provide viability, T/C value for the following compound: Cc1nc(N2CCC3(CC2)COC(C)C3N)c(CO)nc1Sc1ccnc(N)c1Cl (configuration not stated) + Cc1c(S(C)(=O)=O)c(-c2cc(F)cc(N3CCN(c4ccc(NS(=O)(=O)c5ccc(NC(CCN6CCC(C(=O)OCCCP(=O)(O)O)CC6)CSc6ccccc6)c(S(=O)(=O)C(F)(F)F)c5)cc4)CC3)c2)c(-c2ccc(Cl)cc2)n1C(C)C
Key: 97
